Each entry below lists one item and its recorded pIC50 value.
Target: PIM-1 (Homo sapiens, UniProt P11309)
Construct: histidine tag (C); made in house
Sequence (P11309 whole entry): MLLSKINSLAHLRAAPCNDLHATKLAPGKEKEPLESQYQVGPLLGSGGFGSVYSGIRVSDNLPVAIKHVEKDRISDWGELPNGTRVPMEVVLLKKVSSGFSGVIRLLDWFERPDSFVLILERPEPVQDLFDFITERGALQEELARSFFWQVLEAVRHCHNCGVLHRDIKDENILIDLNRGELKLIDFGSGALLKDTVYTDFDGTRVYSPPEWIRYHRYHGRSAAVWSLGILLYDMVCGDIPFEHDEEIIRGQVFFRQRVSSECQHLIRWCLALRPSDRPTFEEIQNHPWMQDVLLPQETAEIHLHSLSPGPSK
Experiment: PIM-1 biochemical assay (ADP Hunter);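 also: recombinant human PIM-1 carrying a C-terminal His tag, kinase activity quantified via ADP formed as the direct enzymatic product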
Settings: semi-quantitative class; read-out: PIM1 IC50
pIC50: −log10 of the molar value.
value.kind: pIC50

[[record]]
smiles_structure = "FC(F)(F)Oc1cccc(-n2nnc3cc(Cl)c(NC4CC5(CCNCC5)C4)nc32)c1"
value_kind = "pIC50"
result = "> 7.00"

[[record]]
smiles_structure = "CC(C)(C)OC(=O)N1CCC(Nc2ccc3nnn(-c4cccc(OC(F)(F)F)c4)c3n2)CC1"
value_kind = "pIC50"
result = "< 6.00"

[[record]]
smiles_structure = "FC(F)(F)Oc1cccc(-n2nnc3ccc(N4CCOC5(CCNCC5)C4)nc32)c1"
value_kind = "pIC50"
result = "> 7.00"

[[record]]
smiles_structure = "CC(=O)NCCNc1ccc2nnn(-c3cccc(OC(F)(F)F)c3)c2n1"
value_kind = "pIC50"
result = "< 6.00"

[[record]]
smiles_structure = "O=C1CNC2(CCN(c3ccc4nnn(-c5cccc(OC(F)(F)F)c5)c4n3)CC2)C1"
value_kind = "pIC50"
result = "< 6.00"

[[record]]
smiles_structure = "COc1cc(NC2CC3(CCNCC3)C2)nc2c1nnn2-c1cccc(N(C)C)c1"
value_kind = "pIC50"
result = "> 7.00"

[[record]]
smiles_structure = "CC(C)CN1CCC(CNc2ccc3nnn(-c4cccc(OC(F)(F)F)c4)c3n2)CC1"
value_kind = "pIC50"
result = "6.00 to 7.00"

[[record]]
smiles_structure = "CCN1CCC2(CC1)CC(CNc1nc3c(cc1Cl)nnn3-c1cccc(OC(F)(F)F)c1)C2"
value_kind = "pIC50"
result = "6.00 to 7.00"

[[record]]
smiles_structure = "FC(F)(F)Oc1cccc(-n2nnc3ccc(NCC4CCN(C5CC5)CC4)nc32)c1"
value_kind = "pIC50"
result = "6.00 to 7.00"

